Source of measurements: ChEMBL document CHEMBL2062481

Test: AUC (0 to 24 hrs) in C3H/HeN mouse plasma at 5 mg/kg, iv administered as single dose
Type: ADME, organism-based
Parameters: time < 24 hr, dose 5 mg/kg, route intravenous
test_readout: AUC(0-t) at 24 h (ng·h/mL)

structure_smiles=O=[N+]([O-])c1ccc2c(ccn2-c2ccc(O[C@H]3O[C@H](CO)[C@@H](O)[C@H](O)[C@@H]3O)c(Cl)c2)c1 observed_value=2300

###

Assay: AUC (0 to 24 hrs) in C3H/HeN mouse urine at 0.05 mg/kg, iv administered as single dose
Assay type: ADME, organism-based
Set-up: time < 24 hr, dose 0.05 mg/kg, route intravenous
test_readout: AUC(0-t) at 24 h (ng·h/mL)

structure_smiles=O=[N+]([O-])c1ccc2c(c1)CCN2c1ccc(O[C@H]2O[C@H](CO)[C@@H](O)[C@H](O)[C@@H]2O)c(Cl)c1 test_readout="AUC(0-t) at 24 h" observed_value=33400

###

Experiment: AUC (0 to 24 hrs) in C3H/HeN mouse plasma at 0.05 mg/kg, iv administered as single dose
Type: ADME, organism-based
Design: time < 24 hr, dose 0.05 mg/kg, route intravenous
test_readout: AUC(0-t) at 24 h (µg·h/mL)

structure_smiles=O=[N+]([O-])c1ccc2c(c1)CCN2c1ccc(O[C@H]2O[C@H](CO)[C@@H](O)[C@H](O)[C@@H]2O)c(Cl)c1 test_readout="AUC(0-t) at 24 h" observed_value=3.5
